Assay: chemical genetic growth profiling, strain panel (AID 1159580);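 note: tested at 20 µM; growth read once vehicle control cultures reached saturation at 30 °C; 1 = growth at the plate median or of vehicle wells; lower values mean less growth of the strain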
Conditions: S. cerevisiae deletion strains, growth OD, locus YKL190W, strain CNB1, hits give low values
Hit rate of the full screen: of about 5,500 compounds, about 2,000 (36%) were called active. Not shown: some 18% with an inconclusive outcome. This is one part of the list.
Hi there, I'd appreciate the recorded normalized growth for every entry that follows.
# output: bare number, no unit

Query: Quick one: normalized growth of CC(C)(C)c1ccc(Oc2ncccc2NC(=O)c2ccccc2C(F)(F)F)cc1 ?
Response: 1

Query: # normalized growth lookup, item Cc1ccccc1N1C(=O)c2cc(S(N)(=O)=O)c(Cl)cc2NC1C (stereo unspecified)
Response: 0.994

Query: If you can, please state the reported normalized growth value of CCSc1ncccc1C(=O)N[C@@H](CCSC)C(=O)OC .
Response: 1.01

Query: What value of measured normalized growth is listed for C[C@]12CCC(=O)C=C1CCc1ccc(O)cc12 ?
Response: 1.01

Query: Please report the recorded normalized growth for Cc1ccc(Cl)cc1NC(=S)N(CCC#N)/N=C\c1ccc2c(c1)OCO2 .
Response: 0.98

Query: # query: normalized growth of entry NNC(=O)c1cccnc1Oc1ccccc1
Response: 1.02

---

Test: chemical genetic growth profiling, strain panel (AID 1159580);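 note: tested at 20 µM; growth read once vehicle control cultures reached saturation at 30 °C; 1 = growth at the plate median or of vehicle wells; lower values mean less growth of the strain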
Settings: S. cerevisiae deletion strains, growth OD, locus YER111C, strain swi4, hits give low values
Among all 5,500 compounds or so, about 2,000 (36%) were called active. Roughly 18% stayed inconclusive and do not appear here. The list shows a part of the results.
Provide the recorded normalized growth for the entries that follow.
Note: the reply should be a number with no unit written.

Query: # query: normalized growth of entry COc1cc(-c2cc(=O)c3c(O)c(OC)c(OC)c(OC)c3o2)cc(OC)c1OC
Response: 1

Query: May I ask what normalized growth has been recorded for COP(N)(=O)SC (configuration not stated) ?
Response: 1.01

Query: Which normalized growth value is on record for CC1(C)C(O)CC(=O)C2(C)C1CC(O)C1(C)C2CCC2(C)C(c3ccoc3)OC(=O)C3OC321 (configuration not stated) ?
Response: 0.99

Query: Please give the measured normalized growth for this compound: Nc1ccc(S(=O)(=O)Nc2ncccn2)cc1
Response: 1

Query: Requested read-out: normalized growth. Entry: COc1ccc(-c2cc(=O)c3c(O)cc(O)cc3o2)cc1
Response: 1.01

Query: Report normalized growth for NCCCN please.
Response: 0.964

Query: Item under review: NC[C@@H]1O[C@H](O[C@@H]2[C@@H](CO)OC(O[C@@H]3[C@@H](O)[C@H](N)C[C@H](N)[C@H]3O[C@H]3O[C@H](CO)[C@@H](O)[C@H](O)[C@H]3N)[C@@H]2O)[C@H](N)[C@@H](O)[C@@H]1O (some centres not stated) . Reported normalized growth?
Response: 0.988

Query: Could you tell me which normalized growth is on file for CCCCC(=O)O[C@]1(C(=O)CO)[C@@H](C)CC2C3CCC4=CC(=O)C=C[C@]4(C)[C@@]3(F)C(O)C[C@@]21C (some centres not stated) ?
Response: 0.968

Query: Quick one: normalized growth for CC(C)=CC1C(CO)C1(C)C (configuration not stated) ?
Response: 1.02

Query: Dear colleague, I am looking for the recorded normalized growth of the following compound: Oc1ccc([C@H]2Oc3cc(O)cc(O)c3C[C@H]2O)cc1
Response: 0.967

Query: Any idea what normalized growth was measured for CCC(=O)OCC(=O)C1(OC(=O)CC)C(C)CC2C3C(Cl)CC4=CC(=O)C=CC4(C)C3C(O)CC21C (configuration not stated) ?
Response: 1.04

Query: Return reported normalized growth; argument: COC(=O)C(N)CS (configuration not stated)
Response: 1.03

---

Assay: chemical genetic growth profiling, strain panel (AID 1159580);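 note: tested at 20 µM; growth read once vehicle control cultures reached saturation at 30 °C; 1 = growth at the plate median or of vehicle wells; lower values mean less growth of the strain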
Conditions: S. cerevisiae deletion strains, growth OD, locus YLR370C, strain arc18, hits give low values
Screen size: about 5,500 compounds; about 2,000 (36%) were called active. Another 18% or so got no clear call; they are omitted. The list shows a part of the results.
observation type: normalized growth
Keep the answer to the number alone.

Query: Fill in the blank: the reported normalized growth of CCC(=O)OCC(=O)C1(OC(=O)CC)C(C)CC2C3C(Cl)CC4=CC(=O)C=CC4(C)C3C(O)CC21C (configuration not stated) is ____.
Response: 1.03

Query: Form field: reported normalized growth of COc1ccc(-c2cc(=O)c3c(O)cc(O)c(-c4cc(-c5cc(=O)c6c(O)cc(O)cc6o5)ccc4OC)c3o2)cc1
Response: 0.997

Query: Which normalized growth reading was recorded for the molecule COc1ccccc1N1CCN(CCCNc2cc(=O)n(C)c(=O)n2C)CC1 ?
Response: 1.03

Query: I am curious: what normalized growth value has been reported for C=CCSSSCC=C ?
Response: 0.978

Query: Which normalized growth value is on record for CC1(C)Oc2ccc3ccc(=O)oc3c2CC1O (configuration not stated) ?
Response: 0.976

Query: Requested read-out: normalized growth. Entry: C=CCSSCC=C
Response: 1.04

Query: May I ask what normalized growth has been recorded for Cc1c(OCC(F)(F)F)ccnc1CS(=O)c1nc2ccccc2[nH]1 (configuration not stated) ?
Response: 1.02

Query: Tell me the measured normalized growth of C=CCSCC=C , please.
Response: 0.977

Query: Could you share which normalized growth value was measured for COP(N)(=O)SC (configuration not stated) ?
Response: 1.01

Query: Which normalized growth value belongs to O=C(O)C1=CC(=C(c2ccc(O)c(C(=O)O)c2)c2ccc(O)c(C(=O)O)c2)C=CC1=O ?
Response: 0.98

Query: Item COc1cccc2c1CCC1=CC(=O)CC[C@@]12C has what recorded normalized growth?
Response: 0.99

Query: Which normalized growth value is on record for CCn1nc(C(=O)O)c(=O)c2cc3c(cc21)OCO3 ?
Response: 1.02

Query: What does the record list as normalized growth for CC(=O)O[C@@H]1c2c(ccc3ccc(=O)oc23)OC(C)(C)[C@@H]1OC(=O)CC(C)C ?
Response: 1

Query: For the molecule shown here, O=S(=O)(O)O , give the reported normalized growth.
Response: 0.965

Query: Quick one: normalized growth for C=CCSC[C@@H](N)C(=O)O ?
Response: 0.999

Query: # normalized growth lookup, item CC(C)(C)NCC(O)COc1cccc2c1CCCC2=O (configuration not stated)
Response: 0.984

Query: Consider the molecule shown here: COc1cc(O)c2c(=O)cc(-c3ccc(OC)c(-c4c(O)cc(O)c5c(=O)cc(-c6ccc(O)cc6)oc45)c3)oc2c1 What is its recorded normalized growth?
Response: 1.01

Query: Dear colleague, I am looking for the recorded normalized growth of the following molecule: NC[C@H]1O[C@H](O[C@H]2[C@H](O)[C@@H](O[C@H]3O[C@H](CO)[C@@H](O)[C@H](N)[C@H]3O)[C@H](N)C[C@@H]2N)[C@H](N)[C@@H](O)[C@@H]1O
Response: 1.02

Query: Would you kindly share the measured normalized growth for CC12CCC(=O)C=C1CCc1ccccc12 (configuration not stated) ?
Response: 0.984

Query: Can you look up the measured normalized growth of NC(=O)c1ccc([N+](=O)[O-])cc1Cl for me?
Response: 0.972

Query: Consider the molecule shown here: CC1(C)S[C@@H]2C(N3C(=O)[C@@H](c4ccccc4)NC3(C)C)C(=O)N2[C@H]1C(=O)O (some centres not stated) What is its recorded normalized growth?
Response: 1

Query: Name the reported normalized growth value associated with the molecule C[C@H]1[C@H](C)CC[C@]2(C(=O)O)CC[C@]3(C)C(=CCC4[C@@]5(C)C[C@@H](O)[C@H](O)[C@@](C)(CO)C5CC[C@]43C)[C@H]12 (some centres not stated)
Response: 1.03

---

Exercise: for every item that follows, state its recorded normalized growth.
Assay: chemical genetic growth profiling, strain panel (AID 1159580);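 note: tested at 20 µM; growth read once vehicle control cultures reached saturation at 30 °C; 1 = growth at the plate median or of vehicle wells; lower values mean less growth of the strain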
Conditions: S. cerevisiae deletion strains, growth OD, locus YKL085W, strain MDH1, hits give low values
Among all 5,500 compounds or so, about 2,000 (36%) were called active. About 18% were inconclusive and are not listed. Some of the results follow.
// no unit, no text: just the number

Query: Could you share which normalized growth value was measured for C[C@H]1O[C@@H](O[C@H]2[C@@H](O)C[C@H](O[C@H]3[C@@H](O)C[C@H](O[C@H]4CC[C@]5(C)C6CC[C@]7(C)[C@@H](C8=CC(=O)OC8)CC[C@]7(O)C6CC[C@@H]5C4)O[C@@H]3C)O[C@@H]2C)C[C@H](O)[C@@H]1O (stereo partly drawn) ?
Response: 0.963

Query: I'd like to know its normalized growth. The compound in question is C[C@@H]1O[C@@H](O[C@H]2CC[C@]3(C=O)C4CC[C@]5(C)[C@@H](C6=CC(=O)OC6)CC[C@]5(O)C4CC[C@]3(O)C2)[C@H](O)[C@H](O)[C@H]1O (stereo partly drawn)
Response: 0.999

Query: Need normalized growth of C[C@]12CC[C@H](O)C[C@H]1CCC1C2CC[C@]2(C)[C@@H](C3=CC(=O)OC3)[C@@H](O)C[C@]12O (stereo partly drawn) , thanks.
Response: 0.996

Each recorded value in this set is attributed to PubChem BioAssay AID1159580.
